The variants listed here are annotated with their protein stability index.
B1: KRT15 (parent)
chain: FGGGSTRGGSLLAGGGGFGGGSLS

Variants of: B1
protocol.summary: protein stability index of a GFP-peptide fusion (GPS, HEK-293T) (PSI 1-6); higher = more stable;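 also: lentivirally expressed fusions sorted by FACS into six bins by GFP to DsRed ratio, PSI derived from sequencing read proportions per bin multiplied by bin number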
measurement.setup: c terminus: a fixed tail appended
Reply briefly: the number, and no unit.

Take a look at these entries with their results.
[
  {
    "residue.string": "FGGGSTRGGSLLAGGGGFEGGSLS [G19E]",
    "protein stability index": 2.35
  },
  {
    "residue.string": "FGGGSTRGGSLLANGGGFGGGSLS [G14N]",
    "protein stability index": 2.94
  },
  {
    "residue.string": "FGGGSTRGGSLCAGGGGFGGGSLS [L12C]",
    "protein stability index": 1.7
  },
  {
    "residue.string": "FGGGSTRGGSLLIGGGGFGGGSLS [A13I]",
    "protein stability index": 1.46
  },
  {
    "residue.string": "FGGGSTRGGSLLAGGGGFKGGSLS [G19K]",
    "protein stability index": 3.1
  }
]

# input May I ask what protein stability index has been recorded for FGGGSTRGGSLLAGGGGFIGGSLS [G19I] ?
# output 3.12

# input May I ask what protein stability index has been recorded for FGGGSTRGGSLLAGGGGHGGGSLS [F18H] ?
# output 3

# input May I ask what protein stability index has been recorded for FGGGSTRGGSLLAGGGNFGGGSLS [G17N] ?
# output 1.41

# input May I ask what protein stability index has been recorded for FMGGSTRGGSLLAGGGGFGGGSLS [G2M] ?
# output 2.15

# input May I ask what protein stability index has been recorded for FGGGSTRGQSLLAGGGGFGGGSLS [G9Q] ?
# output 3.25

# input May I ask what protein stability index has been recorded for FGGGATRGGSLLAGGGGFGGGSLS [S5A] ?
# output 1.57

# input May I ask what protein stability index has been recorded for FGGGSTRGGSLGAGGGGFGGGSLS [L12G] ?
# output 3.23
